Test: Tested for cytotoxic activity against HIV-1 144-44 in PBMC cells
Assay type: cell-based
Conditions: human, read-out: TC50 (the source's name)
Entries and their measured CC50 follow.
quantity_name: CC50

- CC(C)(C)NC(=O)[C@@H]1CN(Cc2cccnc2)CCN1C[C@@H](O)C[C@@H](Cc1ccccc1)C(=O)N[C@H]1c2ccccc2C[C@H]1O: > 100 µM
- CC(C)(C)NC(=O)[C@@H]1C[C@@H]2CCCC[C@@H]2CN1C[C@@H](O)[C@H](Cc1ccccc1)NC(=O)[C@H](CC(N)=O)NC(=O)c1ccc2ccccc2n1: > 50 µM

###

Test: Tested for maximum plasma concentration in rats
Type: ADME, organism-based
Conditions: rat
As shown below, each of these molecules has a reported Cmax value.
quantity_name: Cmax (µM)

* Cc1cc(SC2=C(O)O[C@](CCc3ccccc3)(C(C)C)CC2=O)c(C(C)(C)C)cc1NS(=O)(=O)c1ccc(C#N)cc1 | 3.96
* Cc1cc(SC2=C(O)O[C@](CCc3ccccc3)(C(C)C)CC2=O)c(C(C)(C)C)cc1NS(=O)(=O)c1ccc(C(F)(F)F)cn1 | 3.5
* Cc1cc(SC2=C(O)O[C@](CCc3ccc(O)cc3)(C(C)C)CC2=O)c(C(C)(C)C)cc1OS(C)(=O)=O | 6.54

###

Tested on: Human immunodeficiency virus 1
Test: Effective concentration at which 50% of the HIV-IIIB-infected human lymphocyte-derived CEM cells protected from HIV-1 infection
Settings: Human immunodeficiency virus 1, CCRF-CEM
quantity_name: EC50 (µM)

* Cc1cc(SC2=C(O)OC(CCc3ccc(O)cc3)(C(C)C)CC2=O)c(C(C)(C)C)cc1NS(C)(=O)=O (stereo not drawn) | 5.3
* Cc1cc(SC2=C(O)O[C@](CCc3ccc(O)cc3)(C(C)C)CC2=O)c(C(C)(C)C)cc1NS(=O)(=O)c1ccc(C(F)(F)F)cn1 | 1.8
* Cc1cc(SC2=C(O)OC(C)(CCc3ccc(O)cc3)CC2=O)c(C(C)(C)C)cc1NS(=O)(=O)c1ccc(-c2cccs2)cc1 (stereo not drawn) | 5.6
* Cc1cc(SC2=C(O)OC(C)(CCc3ccc(O)cc3)CC2=O)c(C(C)(C)C)cc1OS(=O)(=O)c1ccc(F)cc1 (stereo not drawn) | 6.3
* Cc1cc(SC2=C(O)OC(C)(CCc3ccc(O)cc3)CC2=O)c(C(C)(C)C)cc1N (stereo not drawn) | 3.7
* Cc1cc(SC2=C(O)OC(CCc3ccc(O)cc3)(C(C)C)CC2=O)c(C(C)(C)C)cc1NS(=O)(=O)c1ccccn1 (stereo not drawn) | 4.1
* Cc1cc(SC2=C(O)OC(CCc3ccc(O)cc3)(C(C)C)CC2=O)c(C(C)(C)C)cc1NS(=O)(=O)c1ccc(C(F)(F)F)cn1 (stereo not drawn) | 4.3
* CCNS(=O)(=O)Oc1cc(C(C)(C)C)c(SC2=C(O)OC(CCc3ccc(O)cc3)(C(C)C)CC2=O)cc1C (stereo not drawn) | 1

###

Form field: pEC50 (one value per entry).
Assay: Effective concentration required for antiviral activity against HIV-1 WeJo in PBMC cells
Format: functional, cell-based
Settings: Homo sapiens
pEC50: −log10 of the molar value.
quantity_name: pEC50

* Cc1cc(SC2=C(O)O[C@](CCc3ccc(O)cc3)(C(C)C)CC2=O)c(C(C)(C)C)cc1N (stereo in doubt; 1S) | 6.60
* Cc1cc(SC2=C(O)O[C@](CCc3ccccc3)(C(C)C)CC2=O)c(C(C)(C)C)cc1NS(=O)(=O)c1ccc(C#N)cc1 | 6.96
* Cc1cc(SC2=C(O)OC(CCc3ccc(O)cc3)(C(C)C)CC2=O)c(C(C)(C)C)cc1OS(C)(=O)=O (stereo not given) | 5.69
* Cc1cc(SC2=C(O)OC(CCc3ccc(O)cc3)(C(C)C)CC2=O)c(C(C)(C)C)cc1OS(=O)(=O)c1cccs1 (stereo not given) | 6.41
* Cc1cc(SC2=C(O)OC(CCc3ccccc3)(C(C)C)CC2=O)c(C(C)(C)C)cc1NS(=O)(=O)c1ccc(C(F)(F)F)cn1 (stereo not given) | 6.16

###

Target: CYP2D6 (Homo sapiens)
Sequence (P10635 whole entry): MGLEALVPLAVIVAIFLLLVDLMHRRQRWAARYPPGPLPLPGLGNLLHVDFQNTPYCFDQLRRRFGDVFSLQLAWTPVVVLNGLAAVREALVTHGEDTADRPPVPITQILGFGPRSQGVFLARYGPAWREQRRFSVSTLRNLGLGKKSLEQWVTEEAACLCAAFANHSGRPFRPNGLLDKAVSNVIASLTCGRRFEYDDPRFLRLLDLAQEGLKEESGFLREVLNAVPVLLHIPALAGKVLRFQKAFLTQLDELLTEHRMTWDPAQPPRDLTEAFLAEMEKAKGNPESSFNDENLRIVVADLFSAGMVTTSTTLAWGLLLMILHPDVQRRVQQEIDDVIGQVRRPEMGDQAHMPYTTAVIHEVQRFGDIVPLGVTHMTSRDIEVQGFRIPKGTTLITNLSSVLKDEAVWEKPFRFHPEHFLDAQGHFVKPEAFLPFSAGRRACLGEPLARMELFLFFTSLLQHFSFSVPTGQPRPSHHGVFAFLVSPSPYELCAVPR
Assay: Residual activity of cytochrome P4502D6 at 1 uM
Each entry below carries its recorded residual activity at 1 µM.
quantity_name: residual activity at 1 µM (%)

* CC(C)(C)NC(=O)[C@@H]1CN(Cc2cccnc2)CCN1C[C@@H](O)C[C@@H](Cc1ccccc1)C(=O)N[C@H]1c2ccccc2C[C@H]1O | 100
* Cc1cc(SC2=C(O)O[C@](CCc3ccc(O)cc3)(C(C)C)CC2=O)c(C(C)(C)C)cc1N (stereo in doubt; 1S) | 105

###

# key: entry, value: AUC
Experiment: AUC value in rat
Type: ADME
Conditions: plasma
quantity_name: AUC (ng·h/mL)

* Cc1cc(SC2=C(O)O[C@](CCc3ccc(O)cc3)(C(C)C)CC2=O)c(C(C)(C)C)cc1OS(C)(=O)=O | 5390
* Cc1cc(SC2=C(O)O[C@](CCc3ccccc3)(C(C)C)CC2=O)c(C(C)(C)C)cc1NS(=O)(=O)c1ccc(C(F)(F)F)cn1 | 6700
* Cc1cc(SC2=C(O)O[C@](CCc3ccccc3)(C(C)C)CC2=O)c(C(C)(C)C)cc1NS(=O)(=O)c1ccc(C#N)cc1 | 10000

###

# EC50 values compiled below
System: Human immunodeficiency virus 1
Test: Effective concentration at which 50% of the HIV-IIIB-infected human lymphocyte-derived CEM cells protected from HIV-1 infection
Details: Human immunodeficiency virus 1, CCRF-CEM
quantity_name: EC50 (nM)

- Cc1cc(SC2=C(O)OC(CCc3ccccc3)(C(C)C)CC2=O)c(C(C)(C)C)cc1NS(=O)(=O)c1ccccn1 (stereo not drawn): 700
- Cc1cc(SC2=C(O)OC(CCc3ccc(O)cc3)(C(C)C)CC2=O)c(C(C)(C)C)cc1OS(=O)(=O)c1cccnc1 (stereo not drawn): 1600
- Cc1cc(SC2=C(O)OC(CCc3ccccc3)(C(C)C)CC2=O)c(C(C)(C)C)cc1NS(=O)(=O)Cn1ccnc1 (stereo not drawn): 4200

###

compounds and their reported CC50
Assay: Tested for cytotoxic activity against HIV-1 144-44 in PBMC cells
Format: cell-based
Conditions: human, pooled result: one value given for 5 cell lines, strains, targets or settings, read-out: TC50 (the source's name)
quantity_name: CC50

• Cc1cc(SC2=C(O)O[C@](CCc3ccc(O)cc3)(C(C)C)CC2=O)c(C(C)(C)C)cc1N (stereo in doubt; 1S) = > 100 µM
• Cc1cc(SC2=C(O)OC(CCc3ccc(O)cc3)(C(C)C)CC2=O)c(C(C)(C)C)cc1OS(C)(=O)=O (stereo not given) = > 100 µM
• Cc1cc(SC2=C(O)OC(CCc3ccc(O)cc3)(C(C)C)CC2=O)c(C(C)(C)C)cc1OS(=O)(=O)c1cccs1 (stereo not given) = > 100 µM
• Cc1cc(SC2=C(O)OC(CCc3ccccc3)(C(C)C)CC2=O)c(C(C)(C)C)cc1NS(=O)(=O)c1ccc(C(F)(F)F)cn1 (stereo not given) = > 100 µM
• Cc1cc(SC2=C(O)O[C@](CCc3ccccc3)(C(C)C)CC2=O)c(C(C)(C)C)cc1NS(=O)(=O)c1ccc(C#N)cc1 = 55.6 µM

###

Tested on: Human immunodeficiency virus 1
Experiment: Effective concentration at which 50% of the HIV-IIIB-infected human lymphocyte-derived CEM cells protected from HIV-1 infection
Settings: ccrf-cem
pEC50: −log10 of the molar value.
quantity_name: pEC50

• Cc1cc(SC2=C(O)O[C@](CCc3ccc(O)cc3)(C(C)C)CC2=O)c(C(C)(C)C)cc1N (stereo in doubt; 1R) = 4.04
• Cc1cc(SC2=C(O)O[C@](CCc3ccc(O)cc3)(C(C)C)CC2=O)c(C(C)(C)C)cc1N (stereo in doubt; 1S) = 6.31

###

Molecular target: UniProtKB P08684
Sequence (P08684 whole entry): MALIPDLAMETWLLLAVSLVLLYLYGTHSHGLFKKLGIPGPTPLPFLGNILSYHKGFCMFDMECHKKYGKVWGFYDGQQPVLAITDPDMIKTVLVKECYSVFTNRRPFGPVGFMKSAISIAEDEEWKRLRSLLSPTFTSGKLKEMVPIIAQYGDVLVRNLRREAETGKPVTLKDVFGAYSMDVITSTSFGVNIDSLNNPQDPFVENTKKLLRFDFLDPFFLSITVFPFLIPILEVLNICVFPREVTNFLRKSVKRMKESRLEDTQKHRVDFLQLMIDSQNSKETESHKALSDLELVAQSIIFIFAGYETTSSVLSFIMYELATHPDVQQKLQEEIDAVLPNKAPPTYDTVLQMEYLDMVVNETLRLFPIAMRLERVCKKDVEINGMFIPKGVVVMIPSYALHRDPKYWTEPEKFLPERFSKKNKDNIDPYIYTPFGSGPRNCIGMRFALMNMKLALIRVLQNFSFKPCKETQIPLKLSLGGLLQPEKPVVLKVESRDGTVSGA
Test: Residual activity of cytochrome P4503A4 at 10 uM
quantity_name: residual activity at 10 µM (%)

- Cc1cc(SC2=C(O)OC(CCc3ccc(O)cc3)(C(C)C)CC2=O)c(C(C)(C)C)cc1OS(=O)(=O)c1ccc(C#N)cc1 (configuration not stated): 34.6
- Cc1cc(SC2=C(O)O[C@](CCc3ccc(O)cc3)(C(C)C)CC2=O)c(C(C)(C)C)cc1N (stereo in doubt; 1S): 96.8

###

Assay: Effective concentration required for antiviral activity against HIV-1 RoJo in PBMC cells
Type: functional, cell-based
Details: Homo sapiens
pEC50: −log10 of the molar value.
Entries and their pEC50
quantity_name: pEC50

• Cc1cc(SC2=C(O)OC(CCc3ccc(O)cc3)(C(C)C)CC2=O)c(C(C)(C)C)cc1OS(=O)(=O)c1cccs1 (stereo not given) = 6.15
• Cc1cc(SC2=C(O)OC(CCc3ccccc3)(C(C)C)CC2=O)c(C(C)(C)C)cc1NS(=O)(=O)c1ccc(C(F)(F)F)cn1 (stereo not given) = 6.17
• Cc1cc(SC2=C(O)O[C@](CCc3ccccc3)(C(C)C)CC2=O)c(C(C)(C)C)cc1NS(=O)(=O)c1ccc(C#N)cc1 = 6.92
• Cc1cc(SC2=C(O)O[C@](CCc3ccc(O)cc3)(C(C)C)CC2=O)c(C(C)(C)C)cc1N (stereo in doubt; 1S) = 6.70
• Cc1cc(SC2=C(O)OC(CCc3ccc(O)cc3)(C(C)C)CC2=O)c(C(C)(C)C)cc1OS(C)(=O)=O (stereo not given) = 5.91
